Protocol summary: tissue distribution pharmacokinetics after single i.p. administration
Type: in vivo, rat
Reported conditions: male, Wistar, rat, heart, ip, 1 mg/kg, heart, 1.0 mg/kg i.p.; read-out: Tmax (converted)
Metric: Tmax (min)
Your answer is read as min, so omit the unit and give the number.

Asked: Given CN1CCN(c2nc(N)nc(C(C)(C)Sc3ccc4ccccc4c3)n2)CC1 , respond with its Tmax.
Given back: 5

###

Protocol summary: tissue distribution pharmacokinetics after single i.p. administration
Type: in vivo, rat
Reported conditions: male, Wistar, rat, kidneys, ip, 1 mg/kg, kidneys, 1.0 mg/kg i.p.; read-out: Tmax (converted)
Metric: Tmax
Include the unit right after the number.

Asked: Given CN1CCN(c2nc(N)nc(C(C)(C)Sc3ccc4ccccc4c3)n2)CC1 [WA-22] , respond with its Tmax.
Given back: 5 min

// provenance: paper PMC11926880
